Assay: NCI Yeast Anticancer Drug Screen. Data for the rad18 strain (AID 177)
Details: S. cerevisiae rad18 mutant growth inhibition; at 100.0 µM; hits give high values
Description: Growth inhibition of yeast strains with defined genetic alterations is measured as a screen for potential anti-cancer activity. Selected strains with alterations in DNA damage repair or cell cycle control were exposed to compounds and growth inhibition was measured relative to vehicle treated controls. The strain used in this assay is rad18
The panel holds about 79,000 compounds, 15% with a hit somewhere; the sample as a whole holds those more often.
propertyMeasured: growth inhibition (%)

{"molecule": "C/C(=N/NC(=S)N1CCCCCC1)c1cccc(/C(C)=N\\NC(=S)N2CCCCCC2)n1", "measuredValue": 70}
{"molecule": "Cn1c(=O)c2ccccc2c2ccccc21", "measuredValue": 91}
{"molecule": "Cc1ccc(C2C(Cl)C(=O)N2n2cnc3ccccc3c2=O)cc1 (centres undefined)", "measuredValue": -5}
{"molecule": "CC1OCC2OC(C)OC(C3C4=C(CC(C)(C)CC4=O)OC4=C3C(=O)CC(C)(C)C4)C2O1 (centres undefined)", "measuredValue": 91}
{"molecule": "S=C(N/N=C(/c1ccccc1)c1ccccn1)N1CCCCCC1", "measuredValue": 19}
{"molecule": "CCOC(=O)[C@H]1Nc2ccccc2C2c3ccccc3CC21 (some centres undefined)", "measuredValue": 74}
{"molecule": "c1ccc2c(c1)Oc1cccc3cccc-2c13", "measuredValue": 71}
{"molecule": "CCNc1nnc(CSc2nc(-c3ccccc3)c(-c3ccccc3)[nH]2)s1", "measuredValue": 79}
{"molecule": "C/C(=N\\O)C1CC2C=C(C#N)C1N(Cc1ccccc1)C2 (centres undefined)", "measuredValue": 86}
{"molecule": "CCCc1cc(C(=O)OCC)cc(CCC)c1O", "measuredValue": 98}
{"molecule": "Cc1ccc(S(=O)(=O)NC(=O)NC2=NC(C)(C)N(c3ccc(Cl)c(Cl)c3)C(N)=N2)cc1", "measuredValue": -1}
{"molecule": "COc1ccc(/C=C/C(=O)C(C)(C)Br)cc1", "measuredValue": 98}
{"molecule": "C(=C\\c1ccccc1)/COc1ccccc1C(N1CCOCC1)n1nc2ccccc2n1 (centres undefined)", "measuredValue": 98}
{"molecule": "O=C1NC(=O)C2C3C=CC(C3)C12 (centres undefined)", "measuredValue": 1}
{"molecule": "CCOC(=O)C(NC(=O)c1ccccc1)(N1CCN(c2cc3c(cc2F)c(=O)c(C(=O)O)cn3C2CC2)CC1)C(F)(F)F (centres undefined)", "measuredValue": 6}
{"molecule": "O=C1Nc2ccc(Cl)c(I)c2C1=O", "measuredValue": 91}
{"molecule": "Fc1ccc(NC(=S)SCc2ccc3c(c2)OCO3)cc1F", "measuredValue": 98}
{"molecule": "CCN(CC)C(=S)N/N=C(/C)c1cccc(/C(C)=N\\NC(=S)N(CC)CC)n1", "measuredValue": 91}
{"molecule": "CC(=O)Oc1cc(-c2cc(OC(C)=O)c(OC(C)=O)c3ccccc23)c2ccccc2c1OC(C)=O", "measuredValue": 90}

Source listed as PubChem BioAssay (NCI).
